- Test system: CCRF-CEM leukemia
- METHOD_SUMMARY: NCI tumour cell line growth inhibition, 48 h
MEASURE: TGI

- MOLECULE: "O=c1c2ccccc2nc(Nc2cccc(Cl)c2)n1/N=C/C=C/c1ccccc1"
  EXPERIMENTAL_SYSTEM: "CCRF-CEM leukemia"
  OBSERVED_VALUE: "> 100 µM"
- MOLECULE: "CNC(=O)N(CCC#N)[C@H]1CCCC[C@@H]1N(C(=O)NC)c1ccccc1"
  EXPERIMENTAL_SYSTEM: "CCRF-CEM leukemia"
  OBSERVED_VALUE: "> 100 µM"
- MOLECULE: "COC(=O)/C=C/c1cc(OC)c(OC)c(OC)c1"
  EXPERIMENTAL_SYSTEM: "CCRF-CEM leukemia"
  OBSERVED_VALUE: "> 100 µM"
- MOLECULE: "Nc1ccc2[nH]c(-c3cccc(Cl)c3)cc(=O)c2c1"
  EXPERIMENTAL_SYSTEM: "CCRF-CEM leukemia"
  OBSERVED_VALUE: "> 100 µM"
- MOLECULE: "O=C(c1ccccc1)c1nnc(C(=O)c2ccccc2)nn1"
  EXPERIMENTAL_SYSTEM: "CCRF-CEM leukemia"
  OBSERVED_VALUE: "> 344 µM"
- MOLECULE: "N#Cc1cc([N+](=O)[O-])ccc1NC(=O)C(=O)Nc1n[nH]c(N)n1"
  EXPERIMENTAL_SYSTEM: "CCRF-CEM leukemia"
  OBSERVED_VALUE: "> 100 µM"
- MOLECULE: "COc1cc(C2=C(c3ccccc3)COC2=O)cc(OC)c1OC"
  EXPERIMENTAL_SYSTEM: "CCRF-CEM leukemia"
  OBSERVED_VALUE: "> 100 µM"
- MOLECULE: "O=C(O)CNS(=O)(=O)c1ccc(NCc2ccccc2)cc1"
  EXPERIMENTAL_SYSTEM: "CCRF-CEM leukemia"
  OBSERVED_VALUE: "> 100 µM"
- MOLECULE: "COCc1nc2c(OC)cc(-c3nc4ccc(N5CCN(C)CC5)cc4[nH]3)c(OC)c2[nH]1"
  EXPERIMENTAL_SYSTEM: "CCRF-CEM leukemia"
  OBSERVED_VALUE: "> 100 µM"
- MOLECULE: "Brc1cccc(N=NN2CCCC2)c1"
  EXPERIMENTAL_SYSTEM: "CCRF-CEM leukemia"
  OBSERVED_VALUE: "> 100 µM"
- MOLECULE: "OC1(c2ccc(Cl)cc2)c2ccc3ccccc3c2C2=N[C@H]3CCCC[C@@H]3N21 (some centres not stated)"
  EXPERIMENTAL_SYSTEM: "CCRF-CEM leukemia"
  OBSERVED_VALUE: "79.9 µM"
- MOLECULE: "O=c1[nH]nc(-c2ccccc2)c2[nH]c(-c3ccccc3)cc12"
  EXPERIMENTAL_SYSTEM: "CCRF-CEM leukemia"
  OBSERVED_VALUE: "> 100 µM"
- MOLECULE: "COc1ccc(-c2cc(=O)c3ccc(O)cc3o2)cc1OC"
  EXPERIMENTAL_SYSTEM: "CCRF-CEM leukemia"
  OBSERVED_VALUE: "> 100 µM"
- MOLECULE: "C=CCOCCCCC(C(C)=O)C(=O)OC (configuration not stated)"
  EXPERIMENTAL_SYSTEM: "CCRF-CEM leukemia"
  OBSERVED_VALUE: "> 100 µM"
- MOLECULE: "CC1(C(=O)O)CCCC1C(=O)O (configuration not stated)"
  EXPERIMENTAL_SYSTEM: "CCRF-CEM leukemia"
  OBSERVED_VALUE: "> 100 µM"
- MOLECULE: "O=C1O[C@@H](c2ccc3c(c2)OCO3)C2C(=O)O[C@@H](c3ccc4c(c3)OCO4)C12 (some centres not stated)"
  EXPERIMENTAL_SYSTEM: "CCRF-CEM leukemia"
  OBSERVED_VALUE: "> 100 µM"
- MOLECULE: "Nc1c(C(=O)c2ccc(Cl)cc2)[nH]c(NCc2ccccc2)c1C(=S)Nc1ccccc1"
  EXPERIMENTAL_SYSTEM: "CCRF-CEM leukemia"
  OBSERVED_VALUE: "5.54 µM"
- MOLECULE: "CCCCCCCCCCNC1CC(OC2CC(O)(C(O)CO)Cc3c(O)c4c(c(O)c32)C(=O)c2c(OC)cccc2C4=O)OC(C)C1O (configuration not stated)"
  EXPERIMENTAL_SYSTEM: "CCRF-CEM leukemia"
  OBSERVED_VALUE: "4.91 µM"
- MOLECULE: "COc1ccc(/C=C/c2nccc3ccccc23)cc1OC"
  EXPERIMENTAL_SYSTEM: "CCRF-CEM leukemia"
  OBSERVED_VALUE: "> 10 µM"
- MOLECULE: "CCC[CH2][Sn]1([CH2]CCC)[O]Cc2nc(C)ccc2[O]1"
  EXPERIMENTAL_SYSTEM: "CCRF-CEM leukemia"
  OBSERVED_VALUE: "5.01 µM"
- MOLECULE: "CCN(CC)c1ccc(/C=C/c2ccc3cc(C)ccc3[n+]2CC)cc1"
  EXPERIMENTAL_SYSTEM: "CCRF-CEM leukemia"
  OBSERVED_VALUE: "29.9 µM"
- MOLECULE: "CC(=O)OC[C@]1(C)C=C2C(=O)[C@](C)(O)C3(CC3)C(C)=C2[C@H]1O"
  EXPERIMENTAL_SYSTEM: "CCRF-CEM leukemia"
  OBSERVED_VALUE: "> 100 µM"
- MOLECULE: "NC(N)=Nc1ncccc1[N+](=O)[O-]"
  EXPERIMENTAL_SYSTEM: "CCRF-CEM leukemia"
  OBSERVED_VALUE: "> 100 µM"
- MOLECULE: "CCOC(=O)C(NC(=O)CC(C)C)(N1CCN(c2cc3c(cc2F)c(=O)c(C(=O)O)cn3C2CC2)CC1)C(F)(F)F (configuration not stated)"
  EXPERIMENTAL_SYSTEM: "CCRF-CEM leukemia"
  OBSERVED_VALUE: "14 µM"
- MOLECULE: "CC(=O)OC/C=C(/C=C/CNC1CCCCC1)OC(C)=O"
  EXPERIMENTAL_SYSTEM: "CCRF-CEM leukemia"
  OBSERVED_VALUE: "> 100 µM"
- MOLECULE: "COC(=O)C1CC2(c3ccccc3)C(=O)c3ccccc3N2O1 (configuration not stated)"
  EXPERIMENTAL_SYSTEM: "CCRF-CEM leukemia"
  OBSERVED_VALUE: "> 100 µM"
- MOLECULE: "COC(=O)c1ccc(C=Nc2ccc(S(N)(=O)=O)cc2)cc1"
  EXPERIMENTAL_SYSTEM: "CCRF-CEM leukemia"
  OBSERVED_VALUE: "83 µM"

---

Items are presented alongside their recorded TGI.
- Tested on: OVCAR-5 ovarian
- METHOD_SUMMARY: NCI tumour cell line growth inhibition, 48 h

- COMPOUND: "O=C(/C=C/c1c(O)ccc2ccccc12)c1cccc(O)c1"
  EXPERIMENTAL_SYSTEM: "OVCAR-5 ovarian"
  TGI: "> 100 µM"
- COMPOUND: "Brc1ccc2c(-c3csc(-c4c[nH]c5ccc(Br)cc45)n3)c[nH]c2c1"
  EXPERIMENTAL_SYSTEM: "OVCAR-5 ovarian"
  TGI: "7.54 µM"
- COMPOUND: "COC(=O)c1c/c(=N\\NC(=O)CC(=O)Nc2ccccc2OC)c2ccccc2o1"
  EXPERIMENTAL_SYSTEM: "OVCAR-5 ovarian"
  TGI: "> 100 µM"
- COMPOUND: "Oc1ccc2ccccc2c1N=Nc1nccs1"
  EXPERIMENTAL_SYSTEM: "OVCAR-5 ovarian"
  TGI: "25.6 µM"
- COMPOUND: "NC(=O)C(=O)N/N=C(\\CC1(O)C(=O)Nc2ccccc21)c1ccc2ccccc2c1 (centres undefined)"
  EXPERIMENTAL_SYSTEM: "OVCAR-5 ovarian"
  TGI: "> 100 µM"
- COMPOUND: "Cc1cc2[nH]c3c(C#N)c4c(c(=O)n3c2cc1C)CCCC4"
  EXPERIMENTAL_SYSTEM: "OVCAR-5 ovarian"
  TGI: "32.7 µM"
- COMPOUND: "O=C1C(Cl)N(c2ccccc2[N+](=O)[O-])C1c1c[nH]c2ccccc12 (centres undefined)"
  EXPERIMENTAL_SYSTEM: "OVCAR-5 ovarian"
  TGI: "54.8 µM"
- COMPOUND: "COc1ccc2c(c1)CN1C(=N2)CSC1c1ccccc1Cl (centres undefined)"
  EXPERIMENTAL_SYSTEM: "OVCAR-5 ovarian"
  TGI: "46.8 µM"
- COMPOUND: "COc1cc(C2=NOC(c3cc(OC)c(OC)c(OC)c3)C2)ccc1OCCCCOc1cc2c(cc1OC)C(=O)N1CCC[C@H]1C=N2 (some centres undefined)"
  EXPERIMENTAL_SYSTEM: "OVCAR-5 ovarian"
  TGI: "1.26 µM"
- COMPOUND: "CCC[CH2][Sn]1([CH2]CCC)[O]Cc2nc(C)ccc2[O]1"
  EXPERIMENTAL_SYSTEM: "OVCAR-5 ovarian"
  TGI: "24.8 µM"
- COMPOUND: "CC(C)(C)C1C=C(Sc2ccccc2)C(=O)O1 (centres undefined)"
  EXPERIMENTAL_SYSTEM: "OVCAR-5 ovarian"
  TGI: "> 100 µM"
- COMPOUND: "CC(C)(CC(=O)Nc1ccccc1)C(=O)O"
  EXPERIMENTAL_SYSTEM: "OVCAR-5 ovarian"
  TGI: "> 100 µM"
- COMPOUND: "CC(=O)OC[C@]1(C)C=C2C(=O)[C@](C)(O)C3(CC3)C(C)=C2[C@H]1O"
  EXPERIMENTAL_SYSTEM: "OVCAR-5 ovarian"
  TGI: "0.506 µM"
- COMPOUND: "CCC(C)C(=O)OC1CC2(C)C(c3ccoc3)OC(=O)CC23OC2(C)OC34C(OC(=O)C(C)C)C3(O)C(OC(=O)C5(C)OC5C)C5(C)CC3(O)C(C)(C5CC(=O)OC)C14O2 (centres undefined)"
  EXPERIMENTAL_SYSTEM: "OVCAR-5 ovarian"
  TGI: "> 100 µM"
- COMPOUND: "COC(=O)c1ccc(C=Nc2ccc(S(N)(=O)=O)cc2)cc1"
  EXPERIMENTAL_SYSTEM: "OVCAR-5 ovarian"
  TGI: "> 100 µM"
- COMPOUND: "COc1cc(C2NC(=O)c3ccccc3N2)ccc1OCCCCCOc1c(OC)cc(C2=NOC(c3cc(OC)c(OC)c(OC)c3)C2)cc1OC (centres undefined)"
  EXPERIMENTAL_SYSTEM: "OVCAR-5 ovarian"
  TGI: "> 94.3 µM"
- COMPOUND: "CCOc1cc2c(Cl)ncnc2c(OCC)c1OCC"
  EXPERIMENTAL_SYSTEM: "OVCAR-5 ovarian"
  TGI: "33.4 µM"
- COMPOUND: "CCOc1cc(-c2nc3ccccn3c2/N=C/c2cc(Br)ccc2O)ccc1O"
  EXPERIMENTAL_SYSTEM: "OVCAR-5 ovarian"
  TGI: "> 100 µM"
- COMPOUND: "O=C1CCC(=O)N2CCCCN12"
  EXPERIMENTAL_SYSTEM: "OVCAR-5 ovarian"
  TGI: "> 100 µM"
- COMPOUND: "Nc1nc(Cl)c2ncn(Cc3ccc(C45CC6CC(CC(C6)C4)C5)c(O)c3)c2n1"
  EXPERIMENTAL_SYSTEM: "OVCAR-5 ovarian"
  TGI: "20.6 µM"
- COMPOUND: "Brc1cccc(C=NC23CC4CC(CC(C4)C2)C3)c1"
  EXPERIMENTAL_SYSTEM: "OVCAR-5 ovarian"
  TGI: "> 100 µM"
- COMPOUND: "C=C1C(=O)O[C@H]2[C@H]1CC/C(Cn1cc(-c3ccc(OC)cc3)nn1)=C\\CC[C@@]1(C)O[C@@H]21"
  EXPERIMENTAL_SYSTEM: "OVCAR-5 ovarian"
  TGI: "3.66 µM"
- COMPOUND: "Cc1cc2ncc3c(=O)n(NS(=O)(=O)c4ccc(N)cc4)ccc3n2n1"
  EXPERIMENTAL_SYSTEM: "OVCAR-5 ovarian"
  TGI: "> 100 µM"
- COMPOUND: "O=C(O)CNS(=O)(=O)c1ccc(NCc2ccccc2)cc1"
  EXPERIMENTAL_SYSTEM: "OVCAR-5 ovarian"
  TGI: "> 100 µM"
- COMPOUND: "Brc1ccc2c(-c3csc(-c4c[nH]c5cc(Br)ccc45)n3)c[nH]c2c1"
  EXPERIMENTAL_SYSTEM: "OVCAR-5 ovarian"
  TGI: "> 90.2 µM"
- COMPOUND: "CN1CCN(C)C12C=c1ccccc1=CC21CC1"
  EXPERIMENTAL_SYSTEM: "OVCAR-5 ovarian"
  TGI: "> 100 µM"
- COMPOUND: "COc1c(Br)cc(CC(N)=O)c(O)c1Br"
  EXPERIMENTAL_SYSTEM: "OVCAR-5 ovarian"
  TGI: "> 100 µM"
- COMPOUND: "COCc1nc2c(OC)cc(-c3nc4ccc(N5CCN(C)CC5)cc4[nH]3)c(OC)c2[nH]1"
  EXPERIMENTAL_SYSTEM: "OVCAR-5 ovarian"
  TGI: "> 100 µM"
- COMPOUND: "CC1(C(=O)O)CCCC1C(=O)O (centres undefined)"
  EXPERIMENTAL_SYSTEM: "OVCAR-5 ovarian"
  TGI: "> 100 µM"

Values compiled from PubChem BioAssay (NCI).
